Provenance of the data: ChEMBL document CHEMBL5096167

ASSAY NOTES: Binding affinity to full length human recombinant PKAc assessed as dissociation constant
PROPERTY LABEL: Kd (nM)
API: value field is a number in nM; no unit string.

Some solved entries appear below for comparison.
sample_smiles=C[C@H](N)C(=O)N[C@@H](CCCNC(=N)N)C(=O)N[C@@H](CCCCNC(=O)C[C@@H](NC(=O)CCCCCNC(=O)[C@H]1O[C@@H](n2cnc3c(N)ncnc32)[C@H](O)[C@@H]1O)C(=O)O)C(=O)N[C@@H](CCCCN)C(=O)N[C@@H](CCC(N)=O)C(=O)N[C@H](C(=O)N[C@@H](C)C(N)=O)[C@@H](C)O units_of_measure=nM result_number=7700
sample_smiles=C[C@H](N)C(=O)N[C@@H](CCCNC(=N)N)C(=O)N[C@@H](CCCCNC(=O)C[C@@H](NC(=O)CCCCCNC(=O)[C@H]1O[C@@H](n2cnc3c(N)ncnc32)[C@H](O)[C@@H]1O)C(N)=O)C(=O)N[C@@H](CCCCN)C(=O)N[C@@H](CCC(=O)O)C(=O)N[C@H](C(=O)N[C@@H](C)C(N)=O)[C@H](C)O units_of_measure=nM result_number=1600
sample_smiles=C[C@H](N)C(=O)N[C@@H](CCCNC(=N)N)C(=O)N[C@@H](CCCCNC(=O)C[C@@H](NC(=O)CCCCCNC(=O)[C@H]1O[C@@H](n2cnc3c(N)ncnc32)[C@H](O)[C@@H]1O)C(N)=O)C(=O)N[C@@H](CCCCN)C(=O)N[C@@H](CCC(N)=O)C(=O)N[C@H](C(=O)N[C@@H](C)C(=O)N[C@@H](CCCNC(=N)N)C(=O)N[C@@H](CCCNC(=N)N)C(=O)N[C@@H](CCCNC(=N)N)C(=O)N[C@@H](CCCNC(=N)N)C(=O)N[C@@H](CCCNC(=N)N)C(=O)N[C@@H](CCCNC(=N)N)C(N)=O)[C@H](C)O units_of_measure=nM result_number=38

For record C[C@H](N)C(=O)N[C@@H](CCCNC(=N)N)C(=O)N[C@@H](CCCCNC(=O)C[C@@H](NC(=O)CCCCCNC(=O)[C@H]1O[C@@H](n2cc(I)c3c(N)ncnc32)[C@H](O)[C@@H]1O)C(=O)O)C(=O)N[C@@H](CCCNC(=N)N)C(=O)N[C@@H](CCC(=O)O)C(=O)N[C@H](C(=O)N[C@@H](C)C(=O)N[C@H](CCCCN)C(N)=O)[C@H](C)O the listed Kd is 94

---

TARGET DESC: Casein kinase II subunit alpha (Homo sapiens)
Sequence (P68400 whole entry): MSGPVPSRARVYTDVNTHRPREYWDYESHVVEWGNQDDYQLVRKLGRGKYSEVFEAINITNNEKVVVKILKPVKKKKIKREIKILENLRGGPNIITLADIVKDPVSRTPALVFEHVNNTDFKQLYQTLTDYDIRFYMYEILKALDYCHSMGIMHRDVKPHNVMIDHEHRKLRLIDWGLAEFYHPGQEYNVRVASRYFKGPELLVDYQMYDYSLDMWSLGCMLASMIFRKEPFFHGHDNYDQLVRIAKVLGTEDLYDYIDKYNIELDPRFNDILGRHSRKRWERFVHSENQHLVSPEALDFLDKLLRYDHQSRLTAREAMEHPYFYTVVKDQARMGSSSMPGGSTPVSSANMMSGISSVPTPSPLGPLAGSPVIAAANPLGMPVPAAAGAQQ
ASSAY NOTES: Inhibition of CK2alpha in human MIA PaCa-2 cells incubated for 5 hrs by western blot analysis
PROPERTY LABEL: pIC50
pIC50 here is simply -log10 of the concentration when that concentration is written in mol/L.

Sample CC(=O)OCOC(=O)CN(CC(=O)OCOC(C)=O)C(=O)CN(CC(=O)OCOC(C)=O)C(=O)CN(CC(=O)OCOC(C)=O)C(=O)CCCCCCCn1cnc2c(Br)c(Br)c(Br)c(Br)c21 ; pIC50 observed: 7.33

---

TARGET DESC: Mitogen-activated protein kinase 1 (Homo sapiens, UniProt P28482)
Sequence (P28482 whole entry): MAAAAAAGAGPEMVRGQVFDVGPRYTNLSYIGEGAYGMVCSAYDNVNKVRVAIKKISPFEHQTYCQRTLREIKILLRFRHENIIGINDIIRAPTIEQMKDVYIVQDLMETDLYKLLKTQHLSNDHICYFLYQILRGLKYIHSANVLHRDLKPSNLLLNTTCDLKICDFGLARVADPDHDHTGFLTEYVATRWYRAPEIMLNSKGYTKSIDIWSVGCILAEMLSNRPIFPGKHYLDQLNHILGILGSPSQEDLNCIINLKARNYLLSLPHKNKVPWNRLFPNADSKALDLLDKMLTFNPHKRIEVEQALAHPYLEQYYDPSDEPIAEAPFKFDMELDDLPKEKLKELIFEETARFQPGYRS
PROPERTY LABEL: pIC50
Keep in mind that pIC50 stands for -log10 of concentration in molar terms.

Noted pIC50 for C#CCCCCNC(=O)CCCCCn1nc(N)c2cc(-c3c(-c4ccccc4)nn4ccccc34)nnc21 , tested on Mitogen-activated protein kinase 1 (Homo sapiens, UniProt P28482): 5.92
